- target or system: Sialic acid-binding Ig-like lectin 9 (Homo sapiens) (UniProt Q9Y336)
- Sequence (Q9Y336 whole entry): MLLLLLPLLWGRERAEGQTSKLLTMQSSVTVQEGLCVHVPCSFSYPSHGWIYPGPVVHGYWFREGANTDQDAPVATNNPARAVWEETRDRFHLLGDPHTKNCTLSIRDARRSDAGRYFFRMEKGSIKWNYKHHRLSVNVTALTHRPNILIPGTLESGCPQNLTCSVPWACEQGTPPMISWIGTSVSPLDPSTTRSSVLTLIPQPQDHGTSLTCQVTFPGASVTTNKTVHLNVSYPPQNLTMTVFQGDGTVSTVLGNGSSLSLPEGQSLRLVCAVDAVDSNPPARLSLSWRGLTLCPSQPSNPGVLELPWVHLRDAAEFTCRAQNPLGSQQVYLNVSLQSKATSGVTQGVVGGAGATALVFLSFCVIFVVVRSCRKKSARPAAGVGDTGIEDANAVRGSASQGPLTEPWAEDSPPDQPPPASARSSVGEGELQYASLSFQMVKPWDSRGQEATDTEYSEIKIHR
- assay overview: Hs-Siglec9 ALPHAscreen SOP 20170721
- Parameters: scale not given: direction of the effect not stated beside the values
- experimental parameters: 10 µM
measured attribute: Percent Effect (%)
Reply numerically in %, unit not repeated.

{"molecule": "CS(=O)(=O)Cc1cccc(C(=O)N2CCCC(n3cccn3)C2)c1 (centres undefined)", "target or system": "Sialic acid-binding Ig-like lectin 9 (Homo sapiens) (UniProt Q9Y336)", "measured attribute": "Percent Effect", "observed result": -5.84}
{"molecule": "Cc1cnc(CN(C)C2CCN(Cc3nc4ccccc4n3C)C2)o1 (centres undefined)", "target or system": "Sialic acid-binding Ig-like lectin 9 (Homo sapiens) (UniProt Q9Y336)", "measured attribute": "Percent Effect", "observed result": -6.81}
{"molecule": "Cc1ccc(C(=O)N2CCCS2(=O)=O)cc1Cl", "target or system": "Sialic acid-binding Ig-like lectin 9 (Homo sapiens) (UniProt Q9Y336)", "measured attribute": "Percent Effect", "observed result": -1.7}

Query string: Fill in the recorded Percent Effect for this molecule, with Sialic acid-binding Ig-like lectin 9 (Homo sapiens) (UniProt Q9Y336) as test system: `O=C(C1CC=CC1)N1C[C@@H]2[C@@H](C1)OCC(=O)N2Cc1cccnc1`
Result string: 3.67

Query string: // next record `COc1ccc(CNCCc2cc(F)cc3c2OCOC3)cc1O`
Result string: 0.774

Query string: // next record Cc1cccc(Nc2nccnc2C2CCCN2CC(=O)N(C)C)n1 (centres undefined)
Result string: 3.06

Query string: // next record `O=C(NCCOc1ccc2c(c1)OCO2)N1CCC1`
Result string: 6.65

Query string: // next record `Cc1ccc(N2CC[C@H]3C[C@@H](C(=O)N4CCOCC4)O[C@H]3C2)nn1`
Result string: -1.51

---

- target or system: Proteasome subunit beta (Trypanosoma cruzi)
- assay overview: Trypanosoma cruzi proteasome chymotrypsin-like activity (TcProtChymo) assay. Further: in the data most compounds retested in dose-response had high values.
- Assay type: functional
- Parameters: scale not given: direction of the effect not stated beside the values
- experimental parameters: 9.37 µM
measured attribute: Percent Effect (%)
Reply numerically in %, unit not repeated.

Solved entries:
{"molecule": "COc1c(C2CCCN2CC(=O)Nc2cc(C)no2)c(C)nn1C (configuration not stated)", "target or system": "Proteasome subunit beta (Trypanosoma cruzi)", "unit spec": "%", "Percent Effect": 6.82}
{"molecule": "O=C(CCc1cnn(-c2ccccc2)c1)N1CCCC(n2cccn2)C1 (configuration not stated)", "target or system": "Proteasome subunit beta (Trypanosoma cruzi)", "unit spec": "%", "Percent Effect": 0.668}
{"molecule": "COc1ccc(F)cc1C(C)NC(=O)c1nnc(C)s1 (configuration not stated)", "target or system": "Proteasome subunit beta (Trypanosoma cruzi)", "unit spec": "%", "Percent Effect": -4.89}
{"molecule": "COc1ncnc2c1CCN(c1cc(C(F)(F)F)ncn1)CC2", "target or system": "Proteasome subunit beta (Trypanosoma cruzi)", "unit spec": "%", "Percent Effect": 6.67}
{"molecule": "COc1ccc(CN2CCC3(CC2)NC(=O)CC3c2ccncc2)cc1 (configuration not stated)", "target or system": "Proteasome subunit beta (Trypanosoma cruzi)", "unit spec": "%", "Percent Effect": 9.27}
{"molecule": "Cc1ccccc1CSc1nc(N)cc(N2C[C@H](O)[C@@H](N(C)C)C2)n1", "target or system": "Proteasome subunit beta (Trypanosoma cruzi)", "unit spec": "%", "Percent Effect": 12.6}

Now consider a different molecule.
Query string: Suppose we examine the molecule `Cc1ccc(OC2(C(=O)O)CCN(C(=O)c3nc(C)oc3C)CC2)cn1` ; what Percent Effect value has been reported?
Result string: -1.2
